Reference for the values: the Human Domainome abundance scans (Beltran et al. 2025)

B1: Intersectin-1, residues 909 to 971; numbered along this chain, Q15811 (parent)
chain: QGEKVEGLQAQALYPWRAKKDNHLNFNKNDVITVLEQQDMWWFGEVQGQKGWFPKSYVKLISG

Variants of: B1
Assay: abundance fitness (aPCA) (normalised: wild type 0, dead -1); higher = more abundant; growth selection in yeast, the domain comes from the species named
Conditions: Homo sapiens
Answer each item with its documented abundance fitness.
Give bare numbers.

Give abundance fitness for the following variant: "Q1K" -0.496

Give abundance fitness for the following variant: "N29G" -0.031

Give abundance fitness for the following variant: "R17T" -0.097

Give abundance fitness for the following variant: "N25S" -0.074

Give abundance fitness for the following variant: "G51R" -0.89

Give abundance fitness for the following variant: "L13N" -0.024

Give abundance fitness for the following variant: "K50N" 0.014

Give abundance fitness for the following variant: "V34Y" -0.856

Give abundance fitness for the following variant: "K59T" -0.31

Give abundance fitness for the following variant: "W52A" -0.708

Field: next variant
Give abundance fitness for the following variant: "F43K" -0.202
